tested.target: Thyroid hormone receptor beta (Homo sapiens) (UniProt P10828)
Sequence (P10828 whole entry, looked up): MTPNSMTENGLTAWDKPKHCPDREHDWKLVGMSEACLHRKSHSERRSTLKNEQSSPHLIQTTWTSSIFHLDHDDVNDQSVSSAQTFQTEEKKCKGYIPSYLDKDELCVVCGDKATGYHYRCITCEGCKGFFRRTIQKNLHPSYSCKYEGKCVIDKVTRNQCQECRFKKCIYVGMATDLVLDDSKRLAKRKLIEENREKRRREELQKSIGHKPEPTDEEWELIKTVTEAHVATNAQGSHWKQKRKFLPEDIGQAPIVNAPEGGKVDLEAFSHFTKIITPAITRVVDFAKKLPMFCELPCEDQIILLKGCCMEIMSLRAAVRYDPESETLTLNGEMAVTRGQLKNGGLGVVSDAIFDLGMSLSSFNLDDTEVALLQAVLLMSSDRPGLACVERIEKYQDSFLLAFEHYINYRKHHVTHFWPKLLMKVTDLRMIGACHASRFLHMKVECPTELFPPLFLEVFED
measurement.notes: qHTS assay for small molecule antagonists of thyroid hormone receptor beta signaling (AID 588547);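 further: cells stimulated with 0.4 nM T3 agonist during compound exposure; on the % scale 0 is the no-effect control and ±100 the full control effect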
condition.notes: TR-UAS-bla HEK293, beta-lactamase ratio, antagonist mode, 18 h
Results filed as inconclusive are left out.
// values below are reported activity change % (negative = inhibition)
Output spec: scalar in %, unitless text.

smiles_structure=COC(=O)c1c(C(F)F)nc(C(F)(F)F)c(C2=NCCS2)c1CC(C)C reading=-8.88
smiles_structure=CCOP(OCC)OCC reading=9.21
smiles_structure=CS(=O)(=O)NC(=O)c1cc(Oc2ccc(C(F)(F)F)cc2Cl)ccc1[N+](=O)[O-] reading=-8.1

Return the recorded activity change % (negative = inhibition) value; entry: CCOP(=O)(OCC)SCSC(C)(C)C
-1.18

Complete the entry with activity change % (negative = inhibition) for CNC(=O)Oc1cccc(N=CN(C)C)c1
4.27

Please supply the value of reported activity change % (negative = inhibition) for the item Clc1ccc(-c2cc(Cl)c(Cl)cc2Cl)cc1Cl
-25.9

----------
System: ATS95
measurement.notes: qHTS profiling for inhibitors of Plasmodium falciparum proliferation (AID 504749); further: nearly all actives have a fitted effect of over 60% in size
condition.notes: P. falciparum in erythrocytes, SYBR Green DNA, 72 h; series mostly up to 28.7 µM
Results filed as inconclusive are left out. The source made the active and inactive calls. The call rests on the fitted dose curve; in most records, active means well fitted inhibition curve with a large enough effect; inconclusive means small, poorly fitted or top-dose-only effect; inactive means flat fitted curve, though single readings scatter.
Returns: one label drawn from y (active), n (inactive)

The examples below pair each entry with its known result.
compound="C[C@@H]1CC[C@H]2[C@@H](C)C(=O)O[C@@H]3OC4(C)CC[C@@H]1C32OO4 (stereo partly drawn)" tested_target=ATS95 label_value=y
compound=Nc1nc(O)c(-c2ccccc2)o1 tested_target=ATS95 label_value=n
compound="Cc1cc(C)cc(C(=O)OC2CC3CCC(C2)N3C)c1 (stereo not drawn)" tested_target=ATS95 label_value=n
compound="C=CC[N+]1(C)CCC23c4c5ccc(O)c4O[C@H]2C(=O)CC[C@@]3(O)C1C5 (stereo partly drawn)" tested_target=ATS95 label_value=n
compound="CC1(C)S[C@@H]2[C@H](N)C(=O)N2C1C(=O)O (stereo partly drawn)" tested_target=ATS95 label_value=n

Fill in: this test's call for CC(C)=CC1C(C(=O)OCc2coc(Cc3ccccc3)c2)C1(C)C (stereo not drawn) is ___
n

Please share the test call associated with CC(=O)[C@H]1CC[C@H]2C3CC[C@H]4C[C@H](O)CC[C@]4(C)C3CC[C@]12C (stereo partly drawn) .
n

Call for entry C[C@@H](N)[C@@H](O)c1ccc(O)c(O)c1 :
n

----------
Known Potency of a selection of compounds
measurement.notes: qHTS assay for cell viability of HEK293 cells (AID 743288); further: potency means the concentration at half of the fitted maximal effect; nearly all actives have a fitted effect of over 50% in size
condition.notes: ATP luminescence (CellTiter-Glo), 18 h
Records with an inconclusive call do not appear. Activity calls are given as the source filed them. Calls come from the whole dose curve; as a rule, active = well fitted cell-killing curve with a large enough effect; inconclusive = small, poorly fitted or top-dose-only effect, or effect the other way; inactive = flat fitted curve, though single readings scatter.

compound=CCC[CH2][Sn]([CH2]CCC)[CH2]CCC reading="28.2 µM (active)"

With those in mind, consider the next compound.
Recall and state the measured Potency for O=C1C=C2C(=CCOC2O)O1 (centres undefined) .
8.91 µM (active)

----------
Listed here: items and their measured max response.
tested.target: Nuclear receptor subfamily 1 group I member 2 (Rattus norvegicus) (UniProt Q9R1A7)
Sequence (Q9R1A7 whole entry, looked up): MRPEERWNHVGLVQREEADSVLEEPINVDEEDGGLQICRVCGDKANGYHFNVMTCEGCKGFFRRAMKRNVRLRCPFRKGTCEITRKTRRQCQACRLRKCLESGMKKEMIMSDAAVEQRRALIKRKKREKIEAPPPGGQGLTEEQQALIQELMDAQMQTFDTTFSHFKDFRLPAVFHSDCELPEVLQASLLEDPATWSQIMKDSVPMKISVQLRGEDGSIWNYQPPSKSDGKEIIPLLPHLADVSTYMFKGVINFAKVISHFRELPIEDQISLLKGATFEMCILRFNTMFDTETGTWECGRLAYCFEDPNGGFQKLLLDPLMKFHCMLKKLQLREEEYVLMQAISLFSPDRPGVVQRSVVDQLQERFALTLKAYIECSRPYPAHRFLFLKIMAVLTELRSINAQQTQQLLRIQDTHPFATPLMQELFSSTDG
measurement.notes: qHTS assay for small molecule activators of the rat pregnane X receptor (rPXR) signaling pathway (AID 651751); further: 0% is about no effect
condition.notes: rPXR reporter cells, luciferase (One-Glo), 24 h
Just the number in %, nothing appended.

Identify max response associated with the molecule CCOP(=O)(SC(C)CC)SC(C)CC (stereo not drawn)
4.1

Give max response for Nc1cccc(Cl)c1Cl
0.634
